Experiment: folding enthalpy; higher = less favourable; fluorescence melt of hairpins on a sequencing array, two-state fit
Conditions: sodium 0.088 M
Class T: folding enthalpy at least -40 kcal/mol. Class F: folding enthalpy below -40 kcal/mol.

INSERT INTO assay_data (input_sequence, assigned_label) VALUES
  ('GATCGAAACGTCGATC ((((((....))))))', 'F'),
  ('ACTCAGAAATGAGT (((((....)))))', 'T'),
  ('GGTCGGAAACGACC (((((....)))))', 'T'),
  ('GCAAGGGAAACCTTGC ((((((....))))))', 'T'),
  ('GCGATCTGTCGC ((((....))))', 'T');

Does the reported folding enthalpy for GGTCCAGAAATGGACC ((((((....)))))) fall at or above the -40 kcal/mol mark?
F

Does the reported folding enthalpy for GATGCCCGAAAGGGAATC (((.(((....))).))) fall at or above the -40 kcal/mol mark?
T

----------
Parameter Tm: see the listing below.
Assay: melting temperature; fluorescence melt of hairpins on a sequencing array, two-state fit, raised by 9.35 °C to match UV melts
Conditions: sodium 0.088 M
Form entry: value (°C) — number only.

Record request: Tm value, item GATCCTAGGAGGATC ((((((...))))))
54.1

Record request: Tm value, item GATCGAGAGATCGATC ((((((....))))))
54.7

----------
Experiment: melting temperature; fluorescence melt of hairpins on a sequencing array, two-state fit, raised by 9.35 °C to match UV melts
Conditions: sodium 0.088 M
Friendly reminder: Tm below 40 °C is label 1, at or above is label 0.

Examples with answers:
INSERT INTO results (input_sequence, assigned_label) VALUES
  ('GATCTGCAACAGATC ((((((...))))))', 'label 0'),
  ('CTTATGAAAATAAG (((((....)))))', 'label 1'),
  ('GATCTCGGGTGAGATC ((((((....))))))', 'label 0');

For this sequence, is Tm lower than 40 °C? GATCACGAAAGTGAATC ((((((....))).)))
label 0

For this sequence, is Tm lower than 40 °C? GTGTAAGGAAACTTACGC (.(((((....))))).)
label 0

For this sequence, is Tm lower than 40 °C? GACAGCGAAAGCTGGTC ((((((....))).)))
label 0

For this sequence, is Tm lower than 40 °C? GATCCAAGTGTGGATC ((((((....))))))
label 0

For this sequence, is Tm lower than 40 °C? GGATACGAAAGTACTTCC ((((((....)))..)))
label 1

----------
Assay: melting temperature; fluorescence melt of hairpins on a sequencing array, two-state fit, raised by 9.35 °C to match UV melts
Settings: sodium 0.088 M
measure.name: Tm (°C)
Form entry: value (°C) — number only.

INSERT INTO assay_data (input_sequence, measure_name, obs_value) VALUES
  ('GAGACGCGAAAGCGACTC (((.(((....))).)))', 'Tm', 66.4),
  ('GTGAGGCGAAAGCCCAC (((.(((....))))))', 'Tm', 61.8),
  ('GCCTGCGAAAGCATGGC ((((((....))).)))', 'Tm', 65.8),
  ('GATCACCCTAGTGATC ((((((....))))))', 'Tm', 58.9);

Record request: Tm value, item GATCCACAGTTGGATC ((((((....))))))
49.3

Record request: Tm value, item GATCGTAGGTACGATC ((((((....))))))
55.8

----------
Assay: folding enthalpy; higher = less favourable; fluorescence melt of hairpins on a sequencing array, two-state fit
Settings: sodium 0.088 M
measure.name: folding enthalpy (kcal/mol)
Form entry: value (kcal/mol) — number only.

Record excerpt, results attached:
INSERT INTO measurements (input_sequence, obs_value) VALUES
  ('GGATCCTCGAAAGAGTCC (((..(((....))))))', -12.3),
  ('GACTTACGAAAGTACGTC (((.(((....))).)))', -33.2),
  ('GTCCTAGGAAACTAGGAC (((((((....)))))))', -51),
  ('GAATCCGGAAACGGATCC (.(((((....))))).)', -14.2),
  ('GATCATAGGATGATC ((((((...))))))', -30.8),
  ('GTCCACGGAAACGCAGAC (((..((....))..)))', -21.3),
  ('GATCGAAGATTCGATC ((((((....))))))', -35.5),
  ('GAGGTGCGAAAGCACTC (((.(((....))))))', -10),
  ('GCGTAGCACGC ((((...))))', -11),
  ('GTTGCGCCGAAAGGCAAC (((..(((....))))))', -13.2);

Record request: folding enthalpy value, item GTGGTCACGAAAGTGCAC (((..(((....))))))
-16.1

Record request: folding enthalpy value, item GAAACGCGAAAGCGGTTC (((.(((....))).)))
-27.2

----------
Assay: melting temperature; fluorescence melt of hairpins on a sequencing array, two-state fit, raised by 9.35 °C to match UV melts
Conditions: sodium 0.088 M
Class MET: Tm at least 50 °C. Class NOT MET: Tm below 50 °C.

INSERT INTO results (input_sequence, assigned_label) VALUES
  ('GACTCGGGAAACCGAGCC (.(((((....))))).)', 'NOT MET');

Does the reported Tm for GGTACCGAAAGGTCAACC ((((((....)))..))) fall at or above the 50 °C mark?
NOT MET

Does the reported Tm for GGCAACGAAAGTTGCGCC ((((((....)))..))) fall at or above the 50 °C mark?
MET

Does the reported Tm for CGCGGAACGCTCCGCG ((((((....)))))) fall at or above the 50 °C mark?
MET

Does the reported Tm for GATCGGAGCCCGATC ((((((...)))))) fall at or above the 50 °C mark?
MET

----------
Assay: melting temperature; fluorescence melt of hairpins on a sequencing array, two-state fit, raised by 9.35 °C to match UV melts
Settings: sodium 0.088 M
Friendly reminder: Tm below 50 °C is Satisfied, at or above is Not satisfied.

Examples with answers:
INSERT INTO results (input_sequence, assigned_label) VALUES
  ('GACTTAGGAAACTGAGTC ((((.((....)).))))', 'Satisfied'),
  ('GTCTTCACGAAAGTGGAC (((..(((....))))))', 'Satisfied'),
  ('GCGCTGCGAAAGCACGC (((.(((....))))))', 'Not satisfied'),
  ('GATCCAGAACTGGATC ((((((....))))))', 'Not satisfied'),
  ('GTTTGCGAAAGCAGTAAC ((((((....)))..)))', 'Satisfied'),
  ('GCGCTGCGAAAGCGACGC (((..((....))..)))', 'Not satisfied');

For this sequence, is Tm lower than 50 °C? GATCGAGATGTCGATC ((((((....))))))
Not satisfied

For this sequence, is Tm lower than 50 °C? GATCATCACGATGATC ((((((....))))))
Not satisfied

For this sequence, is Tm lower than 50 °C? GGGGAAGGAAACTTCTCC ((.((((....)))).))
Satisfied

----------
Assay: melting temperature; fluorescence melt of hairpins on a sequencing array, two-state fit, raised by 9.35 °C to match UV melts
Conditions: sodium 0.088 M
Parameter Tm: see the listing below.
Form entry: value (°C) — number only.

Record request: Tm value, item GGGCCCGAAAGGGGACCC ((((((....)))..)))
65.1

----------
Assay: folding enthalpy; higher = less favourable; fluorescence melt of hairpins on a sequencing array, two-state fit
Conditions: sodium 0.088 M
Parameter folding enthalpy: see the listing below.
Form entry: value (kcal/mol) — number only.

Record excerpt, results attached:
INSERT INTO results (input_sequence, obs_value) VALUES
  ('GGAGACGGAAACATCTCC (((((.(....).)))))', -31.8),
  ('GATCCTAAAAGGATC ((((((...))))))', -36.3),
  ('GGATCCGAAAGGAAGTCC ((((((....)))..)))', -10.1),
  ('GCGCAGCGAAAGCTCGC (((.(((....))))))', -15.8),
  ('GGCGATGGAAACATCGTC (.(((((....))))).)', -45.8);

API: the following record is the query input.
Record request: folding enthalpy value, item GGTACGGGAAACCGTGTC (..((((....))))..)
-14.1
